Test: Maximum tolerated dose in mice after single administration
Design: species or system Mäusen
Conditions: mouse, in vivo, po, single p.o. administration, 7-day observation, read-out: maximal tolerierte Dosis
READOUT_TYPE: MTD at 168 h

1. CC1(C)CCc2c3c(c4ccccc4c2O1)OCO3 [Beispiel 1] = > 2500 mg/kg

====

Assay: Maximum tolerated dose in mice after single administration
Parameters: species or system Mäusen
Settings: mouse, in vivo, ip, single i.p. administration, 7-day observation, read-out: maximal tolerierte Dosis
READOUT_TYPE: MTD at 168 h

1) CC1(C)CCc2c3c(c4ccccc4c2O1)OCO3 [Beispiel 1] = > 1250 mg/kg
